Measured RLU, fluorescence trace values are reported for all entries that follow.
# target_system: human TAS2R4 (Homo sapiens, UniProt Q9NYW5)
# Construct: expressed in transfected cells; host or cells: HEK293T-Gα16gust44
# Sequence (Q9NYW5 whole entry): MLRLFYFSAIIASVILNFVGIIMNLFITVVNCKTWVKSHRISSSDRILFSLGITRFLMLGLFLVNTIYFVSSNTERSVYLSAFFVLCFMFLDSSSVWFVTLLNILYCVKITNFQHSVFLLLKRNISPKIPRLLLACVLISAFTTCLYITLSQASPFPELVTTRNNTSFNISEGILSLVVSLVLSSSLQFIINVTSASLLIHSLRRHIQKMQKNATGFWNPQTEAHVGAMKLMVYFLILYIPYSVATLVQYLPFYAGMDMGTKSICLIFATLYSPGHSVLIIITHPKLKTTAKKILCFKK
# experiment_summary: Calcium imaging assay (FLIPR), HEK293T-Gα16gust44 cells transfected with human TAS2R4; note: test concentration or dose not given here
# Type: cell-based
# condition_summary: Time (s) 52.781 (TCA, TLCA: 52.782)
Number in RLU, nothing else.

Some solved cases for reference:
# molecule, RLU, fluorescence trace [RLU]
data = [
    ("C[C@H](CCC(=O)O)[C@H]1CC[C@H]2[C@@H]3[C@@H](O)C[C@@H]4C[C@H](O)CC[C@]4(C)[C@H]3CC[C@]12C", 398.089),
    ("C[C@H](CCC(=O)O)[C@H]1CC[C@H]2[C@@H]3CC[C@@H]4C[C@H](O)CC[C@]4(C)[C@H]3C[C@H](O)[C@]12C", 336.965),
]

Now for another entry.
Tell me its RLU, fluorescence trace on human TAS2R4 (Homo sapiens, UniProt Q9NYW5): `C[C@H](CCC(=O)O)[C@H]1CC[C@H]2[C@@H]3[C@H](O)C[C@@H]4C[C@H](O)CC[C@]4(C)[C@H]3C[C@H](O)[C@]12C`
608.216

----------
# target_system: mouse Tas2r105 (Mus musculus)
# Construct: expressed in transfected cells; host or cells: HEK293T-Gα16gust44
# Sequence (Q9JKT4 whole entry): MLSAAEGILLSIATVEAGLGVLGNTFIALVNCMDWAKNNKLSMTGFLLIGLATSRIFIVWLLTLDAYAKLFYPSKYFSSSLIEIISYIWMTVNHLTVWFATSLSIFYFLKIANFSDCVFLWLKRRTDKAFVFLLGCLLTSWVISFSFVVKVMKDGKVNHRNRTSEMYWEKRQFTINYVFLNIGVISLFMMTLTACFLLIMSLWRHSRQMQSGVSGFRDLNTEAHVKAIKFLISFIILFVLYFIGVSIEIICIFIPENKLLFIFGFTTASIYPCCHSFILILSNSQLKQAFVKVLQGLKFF
# experiment_summary: Calcium imaging assay (FLIPR), HEK293T-Gα16gust44 cells transfected with mouse Tas2r105
# Type: cell-based
# condition_summary: Time 76.781 s
Attribute: RLU
# output: bare number, implied unit RLU

Known results for compounds:
# molecule, unit_spec, RLU
rows = [
    ("C[C@H](CCC(=O)O)[C@H]1CC[C@H]2[C@@H]3CC[C@@H]4C[C@H](O)CC[C@]4(C)[C@H]3CC[C@]12C", "RLU", 172.509),
    ("C[C@H](CCC(=O)O)[C@H]1CC[C@H]2[C@@H]3CC[C@@H]4C[C@H](O)CC[C@]4(C)[C@H]3C[C@H](O)[C@]12C", "RLU", 66.018),
]

Tell us which RLU value is on record for `C[C@H](CCC(=O)NCC(=O)O)[C@H]1CC[C@H]2[C@@H]3[C@H](O)C[C@@H]4C[C@H](O)CC[C@]4(C)[C@H]3C[C@H](O)[C@]12C`
460.126

Return RLU (reported value) for this compound: `C[C@H](CCC(=O)O)[C@H]1CC[C@H]2[C@@H]3[C@H](O)C[C@@H]4C[C@H](O)CC[C@]4(C)[C@H]3C[C@H](O)[C@]12C`
487.87

----------
# target_system: human TAS2R1 (Homo sapiens)
# Construct: expressed in transfected cells; host or cells: HEK293T-Gα16gust44
# Sequence (Q9NYW7 1-299): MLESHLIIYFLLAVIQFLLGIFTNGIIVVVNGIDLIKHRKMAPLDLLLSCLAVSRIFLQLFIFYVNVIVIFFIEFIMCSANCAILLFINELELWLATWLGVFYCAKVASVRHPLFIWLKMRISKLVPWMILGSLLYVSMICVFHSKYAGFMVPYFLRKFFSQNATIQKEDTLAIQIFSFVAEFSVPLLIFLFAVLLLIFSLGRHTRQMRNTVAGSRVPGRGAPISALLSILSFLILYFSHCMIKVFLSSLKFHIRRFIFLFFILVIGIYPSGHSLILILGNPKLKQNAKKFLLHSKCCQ
# experiment_summary: Calcium imaging assay (FLIPR), HEK293T-Gα16gust44 cells transfected with human TAS2R1
# Format: cell-based
# condition_summary: Time 132.781 s
# Experimental: This set of bile acids was chosen because of their commercial availability in high purities, their diversity within the class of bile acids and their previous detection and quantitation in human blood. Stock solutions were prepared in DMSO. […] Measured data were negative control corrected by subtracting the signal of the mock-transfected cells and exported to Microsoft Excel using the FLIPR software ScreenWorks 4.2. […]
recorded_endpoint: RLU

Some solved cases for reference:
# molecule, RLU
rows = [
    ("C[C@H](CCC(=O)O)[C@H]1CC[C@H]2[C@@H]3CC[C@@H]4C[C@H](O)CC[C@]4(C)[C@H]3C[C@H](O)[C@]12C [Deoxycholic Acid, deoxycholic acid]", "375.09 RLU"),
    ("C[C@H](CCC(=O)NCCS(=O)(=O)O)[C@H]1CC[C@H]2[C@@H]3[C@H](O)C[C@@H]4C[C@H](O)CC[C@]4(C)[C@H]3C[C@H](O)[C@]12C [Taurocholic Acid, taurocholic acid]", "279.196 RLU"),
    ("C[C@H](CCC(=O)NCC(=O)O)[C@H]1CC[C@H]2[C@@H]3[C@H](O)C[C@@H]4C[C@H](O)CC[C@]4(C)[C@H]3C[C@H](O)[C@]12C [Glycocholic Acid, glycocholic acid]", "393.75 RLU"),
]

As a next step, examine the molecule that follows.
Under human TAS2R1 (Homo sapiens), report RLU for C[C@H](CCC(=O)NCCS(=O)(=O)O)[C@H]1CC[C@H]2[C@@H]3CC[C@@H]4C[C@H](O)CC[C@]4(C)[C@H]3CC[C@]12C [Taurolithocholic Acid, taurolithocholic acid]
420.045 RLU
